Numbers sourced from patent US8765786B2.

Target Desc: human α7 nAChR (Homo sapiens, UniProt P36544)
Construct: expressed in transfected cells; host or cells: GH4C1 cells derived from rat pituitary (ATCC CCL-82.2)
Sequence (P36544 23-502): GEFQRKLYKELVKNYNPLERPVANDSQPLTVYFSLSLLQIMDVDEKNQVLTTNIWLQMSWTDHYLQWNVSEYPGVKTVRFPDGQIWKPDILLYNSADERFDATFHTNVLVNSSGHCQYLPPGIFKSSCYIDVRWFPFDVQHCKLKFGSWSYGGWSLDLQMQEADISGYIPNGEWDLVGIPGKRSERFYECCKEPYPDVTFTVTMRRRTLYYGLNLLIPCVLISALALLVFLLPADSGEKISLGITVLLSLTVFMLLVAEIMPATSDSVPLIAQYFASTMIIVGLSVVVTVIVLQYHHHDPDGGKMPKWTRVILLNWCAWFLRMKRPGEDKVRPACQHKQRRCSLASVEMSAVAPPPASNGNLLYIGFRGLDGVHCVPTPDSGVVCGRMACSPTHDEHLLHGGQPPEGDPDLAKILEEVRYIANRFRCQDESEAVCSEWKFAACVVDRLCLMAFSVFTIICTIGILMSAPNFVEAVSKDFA
Protocol Details: Evaluation of PAM activity with human α7 nACh receptor stably expressing cells (aequorin luminescence, FDSS7000)
Assay type: cell-based
Assay Setup: test compound 10 μmol/L; ACh added at EC20; ratio of RLU (Max-Min) of test wells to control wells
Measured Endpoint: α7PAM (%) @ 10 μmol/L
// note: answer is a bare numeric in %

# get_value(readout='α7PAM (%) @ 10 μmol/L', item= "O=C(NC1CCCC1)N1CCC(n2ncc3cc(C4CC4)ccc32)CC1" )
1382

// α7PAM (%) @ 10 μmol/L lookup, key: "O=C(NC1CCOCC1)N1CCC(n2ncc3cc(C(F)(F)F)ccc32)CC1"
340

Recorded α7PAM (%) @ 10 μmol/L for "[2H]C([2H])([2H])O[C@H]1CC[C@H](NC(=O)N2CCC(n3ncc4cc(OC(F)F)ccc43)CC2)CC1" , please?
1251

Field: next compound
Can you share its α7PAM (%) @ 10 μmol/L? I mean this compound: COc1c(C(F)(F)F)ccc2c1cnn2C1CCN(C(=O)NC2CCC(OC)CC2)CC1 (stereo not shown)
360
